measure: melting point

Would you please look over these solved cases?
Cc1c(C)c2c(c(C)c1N)C(c1ccc(-c3ccccc3)cc1)CO2 (configuration not stated) | 149 to 150 °C
CC(C)(C)OC(=O)Nc1ccc(-c2cccc(F)c2)cc1NC(=O)CC(=O)c1cccc(C#N)c1 | 148 to 150 °C
CC(C)(O)c1ccc(CC(=O)Nc2cccnc2Oc2cccnc2)cc1 | 122 to 124 °C
COC(=O)CCCC(=O)Nc1ccc(C(=O)NN=C2C(=O)Nc3ccc(I)cc32)cc1 | 282 °C
Cc1ccc(NC=CS(=O)(=O)F)cc1 | 61 to 65 °C

Suppose we examine the compound O=C1CCC(C2CO2)N1Cc1ccccc1Cl (configuration not stated) ; what melting point value has been reported?
81 to 83 °C

State the recorded melting point for this entry: N[C@@H](CC(=O)c1ccc2oc3ccccc3c2c1)C(=O)O
182 to 187 °C

If you can, please state the reported melting point value of CCCCC(=NNC(=O)c1ccccc1)c1ccncc1 .
142 °C

Fill blank: measured melting point of the compound C[C@@H](CO)NS(=O)(=O)c1ccccc1[N+](=O)[O-] is ____.
82 to 83 °C

Data request, read-out melting point, for CCOC(=O)c1cc(C)c(Cl)nc1Nc1ccc(I)cc1
144 to 146 °C

Look up melting point for this compound: CN(C)c1cc(CO)ncn1
137 to 139 °C

Please report the recorded melting point for CCSCCn1c(=N)sc2cc(C(F)(F)F)ccc21 .
50 °C

Need melting point, item CC(=NOCCOc1ccc(CC2SC(=O)NC2=O)cc1)c1cc(C)c(O)c(C)c1 (configuration not stated)
53 to 65 °C

If you can, please state the reported melting point value of COc1nsc2nc3ccccc3n12 .
172 to 175 °C

Name the reported melting point value associated with the compound CNC(=O)n1cnc(C)c1Cl
94.1 to 94.4 °C

# input compound: COc1ccc(C#Cc2ccc(OC3CN4CCC3CC4)cc2)cc1 (configuration not stated) ; wanted: its melting point
112 to 115 °C

Fill in: melting point of O=Cc1cc([N+](=O)[O-])c(Cl)cc1Cl is ___
61 to 63 °C

---

Measured melting point, listed per entry.

These recorded examples may help you get a feel for the data.
N#Cc1ccc2c(c1)CCC1CC(=O)NN=C21 (stereo unspecified) | 292 to 295 °C
C(=C\c1ccc2c(c1)COC(N[C@@H]1CCc3ccccc31)=N2)/c1cccnc1 | 132 °C
Cc1c2n(c3ccccc13)C(=O)C(C)(Cc1ncn(C(c3ccccc3)(c3ccccc3)c3ccccc3)c1C)CC2 (stereo unspecified) | 116 to 118 °C

What melting point value was documented for this compound, CS(=O)(=O)c1ccc(Cl)cc1C1NC(=O)NC1=O (stereo unspecified) ?
238 to 240 °C

Name the recorded melting point for NC(=O)CNC(=S)Nc1ccccc1 .
150 to 152 °C

Fill in the blank: the reported melting point of CSc1cc2c(cc1C(F)(F)F)N(C(=O)Nc1cccc(C(=O)O)c1)CC2 is ____.
> 200 °C

---

melting point values, listed per item

Please review the following examples before continuing.
CC(=O)Nc1cc(Br)ccc1Sc1ccc([N+](=O)[O-])cc1[N+](=O)[O-] | 194 to 196 °C
COC1=C(Cc2ccc3ccccc3c2)C(=O)CC1 | 70 to 71 °C
O=C(CCC(O)c1ccc(CCNS(=O)(=O)c2ccc(Cl)cc2)cc1)Nc1nnn[nH]1 (centres undefined) | 194 to 196 °C

In the following, a different compound is considered.
// query melting point value for entry CCCOc1c(OCc2ccccc2)cc(C2CCC(=O)O2)cc1S(=O)(=O)CCC (centres undefined)
95 to 96 °C

Values from a melting point compilation (Tetko et al.; mined from patent text by program, amines drawn as free bases though some values may be those of a salt)
